System: delF508-CFTR (Homo sapiens, UniProt P13569, DEL508-508)
Construct: functional activity of the CFTR channel (Chloride ion transport) in patient derived primary human bronchial epithelial cells; host or cells: patient-derived primary human bronchial epithelial cells (delF508-CFTR)
Sequence (P13569 with tags, fused parts or gaps DEL508-508): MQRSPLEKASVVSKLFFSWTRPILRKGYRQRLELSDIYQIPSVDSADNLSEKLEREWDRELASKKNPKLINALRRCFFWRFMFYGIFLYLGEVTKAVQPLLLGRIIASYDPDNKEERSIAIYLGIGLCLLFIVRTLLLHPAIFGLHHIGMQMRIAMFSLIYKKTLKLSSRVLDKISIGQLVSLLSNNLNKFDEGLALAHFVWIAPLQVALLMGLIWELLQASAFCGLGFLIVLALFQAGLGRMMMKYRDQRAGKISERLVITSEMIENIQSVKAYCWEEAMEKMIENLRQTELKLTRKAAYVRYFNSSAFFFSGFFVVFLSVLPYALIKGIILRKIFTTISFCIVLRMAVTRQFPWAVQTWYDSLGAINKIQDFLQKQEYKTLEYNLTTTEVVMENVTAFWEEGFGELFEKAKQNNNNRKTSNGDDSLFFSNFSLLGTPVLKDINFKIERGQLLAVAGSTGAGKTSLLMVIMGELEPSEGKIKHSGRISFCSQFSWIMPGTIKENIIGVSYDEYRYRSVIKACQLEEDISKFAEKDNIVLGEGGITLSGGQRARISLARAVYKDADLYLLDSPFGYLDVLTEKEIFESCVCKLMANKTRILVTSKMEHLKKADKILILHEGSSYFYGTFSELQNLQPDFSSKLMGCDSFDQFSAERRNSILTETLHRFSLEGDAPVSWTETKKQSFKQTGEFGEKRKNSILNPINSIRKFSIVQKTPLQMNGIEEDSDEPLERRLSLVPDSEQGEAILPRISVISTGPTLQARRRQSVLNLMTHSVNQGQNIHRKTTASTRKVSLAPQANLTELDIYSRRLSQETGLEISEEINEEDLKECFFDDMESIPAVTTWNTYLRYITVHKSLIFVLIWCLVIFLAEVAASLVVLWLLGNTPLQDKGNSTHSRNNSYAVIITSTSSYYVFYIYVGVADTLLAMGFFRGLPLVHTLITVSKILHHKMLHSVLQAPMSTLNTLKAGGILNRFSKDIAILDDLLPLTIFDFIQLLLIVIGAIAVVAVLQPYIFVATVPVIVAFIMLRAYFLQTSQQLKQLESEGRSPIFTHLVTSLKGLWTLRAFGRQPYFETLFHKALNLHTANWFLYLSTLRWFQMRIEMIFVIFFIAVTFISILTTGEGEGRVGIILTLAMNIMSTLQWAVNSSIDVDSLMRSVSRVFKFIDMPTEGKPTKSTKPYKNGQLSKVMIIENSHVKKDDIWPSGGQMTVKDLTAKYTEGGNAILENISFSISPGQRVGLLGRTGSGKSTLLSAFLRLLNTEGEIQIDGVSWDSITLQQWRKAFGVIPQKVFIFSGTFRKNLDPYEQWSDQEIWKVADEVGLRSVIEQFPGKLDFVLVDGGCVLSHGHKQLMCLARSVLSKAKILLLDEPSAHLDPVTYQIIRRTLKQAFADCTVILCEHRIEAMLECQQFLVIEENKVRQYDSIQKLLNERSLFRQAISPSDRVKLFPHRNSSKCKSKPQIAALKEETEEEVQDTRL
Procedure Text: Measurement of delF508-CFTR functional activity in primary human bronchial epithelial cells (HBECs) using Multi-Transepithelial Clamp Circuit (MTECC-24) assay
Type: cell-based
Conditions Used: primary CF HBECs; test compound added 24h before assay plus potentiator; relative to reference combination (2 μM corrector + 0.5 μM potentiator)
Label 1 when MTECC24 CFHBEC- Amax % < 60%; otherwise 0.

Use the examples below as a reference point.
Cc1ccccc1-c1nc(NS(=O)(=O)c2cccc(N3CCN(CC(F)F)CC3)n2)ccc1C(F)(F)F    0
CCc1ccccc1-c1nc(NS(=O)(=O)c2ccnc(N3CCC(C)(C(=O)O)CC3)c2)ccc1C(F)(F)F    1
Cc1ccccc1-c1nc(NS(=O)(=O)c2cccc(N3CCC4(CCC[C@H]4N)CC3)n2)ccc1C(F)(F)F    0

(Q) Is MTECC24 CFHBEC- Amax % of Cc1ccc(F)cc1-c1nc(NS(=O)(=O)c2cccc(N3CCCC(C)(C(=O)O)C3)n2)ccc1C(F)(F)F (stereo not drawn) strictly below 60%?
(A) 1

(Q) Quick check: MTECC24 CFHBEC- Amax % of Cc1c(F)cccc1-c1nc(NS(=O)(=O)c2cccc(N3CCC(C)(C(=O)O)CC3)n2)ccc1Cl under 60%?
(A) 0

(Q) Field: below-cutoff. Rule: recorded MTECC24 CFHBEC- Amax % strictly less than 60%. Subject: COc1ccc(F)cc1-c1nc(NS(=O)(=O)c2cccc(N3CC(O)C3)n2)ccc1C(F)(F)F
(A) 0

(Q) Please state whether MTECC24 CFHBEC- Amax % is below 60% for CC1(C(=O)O)CCN(c2cccc(S(=O)(=O)Nc3ccc(Cl)c(-c4cccc(F)c4Cl)n3)n2)CC1
(A) 1
